Listing of entries alongside the reported Population Mitotic Cells (%).
System: U2OS
methodSummary: Multiplex assay against U2OS
Format: toxicity, cell-based
measurementParameters: human, 24 h, 10 µM, compound concentration 10 uM, replicate 1

# compound, systemTested, Population Mitotic Cells (%)
data = [
    ("Cl.NCCc1ccc(O)c(O)c1 [DOPAMINE HYDROCHLORIDE]", "U2OS", 8),
    ("COC[C@@H](c1ccc(C(F)(F)F)cc1)N1CCN(C2(C)CCN(C(=O)c3c(C)ncnc3C)CC2)C[C@@H]1C.O=C(O)/C=C\\C(=O)O [VICRIVIROC MALEATE]", "U2OS", 19),
    ("Br.CS(=O)(=O)Nc1c(O)ccc2c1CCCC2C1=NCCN1 (centres undefined)", "U2OS", 13),
    ("Cc1onc(-c2ccccc2Cl)c1C(=O)N(C)c1ccc(Cl)cc1", "U2OS", 27),
    ("COc1cccc2c1c(NS(=O)(=O)c1ccc(Cl)s1)nn2Cc1cccc(CNC(=O)C(C)(C)O)c1", "U2OS", 10),
    ("CN(C)C(=O)Cn1cc(-c2ccc(-c3cncc4ccccc34)cc2)cn1", "U2OS", 45),
    ("COc1ccccc1N1CCN(C[C@@H](C(=O)NC(C)(C)C)c2ccccc2)CC1.Cl.Cl", "U2OS", 38),
    ("CC(C)COc1ccc(CNC(=O)N(Cc2ccc(F)cc2)C2CCN(C)CC2)cc1 [PIMAVANSERIN]", "U2OS", 11),
    ("Cc1c(CC(=O)O)c2cccnc2n1Cc1ccc(S(C)(=O)=O)cc1C(F)(F)F [FEVIPIPRANT]", "U2OS", 3),
]
